Tested on: PRKACA-PRKAR2A interaction (SmBiT-PRKACA / LgBiT-PRKAR2A), protein kinase A
Parameters: NanoLuc complementation counter-screen in cell extract, PRKACA with PRKAR2A, loss of luminescence, detects NanoLuc interference
CONDITION: counter-screen for NanoLuc interference; 0.5 h, 20 µM; inhibitor
Where a name gives a salt, the structure may show the parent alone.
METRIC: Inh (PKA)

COMPOUND	METRIC	VAL
Cc1nnc(SCC2=C(C(=O)O)N3C(=O)[C@@H](NC(=O)Cn4cnnn4)[C@H]3SC2)s1 [UM0133624:02, Cefazolin (sodium salt)]	Inh (PKA)	0.1508%
COc1cc2c(Oc3ccc(NC(=O)C4(C(=O)Nc5ccc(F)cc5)CC4)cc3F)ccnc2cc1OCCCN1CCOCC1	Inh (PKA)	3.567%
CC(C)(C)c1cnc(CSc2cnc(NC(=O)C3CCNCC3)s2)o1	Inh (PKA)	4.184%
CCN[C@H]1C[C@H](C)S(=O)(=O)c2sc(S(N)(=O)=O)cc21 [UM0118923:03, Dorzolamide HCl]	Inh (PKA)	-0.4651%
CC(C)N(CCCNC(=O)Nc1ccc(C(C)(C)C)cc1)C[C@H]1O[C@@H](n2cc(Br)c3c(N)ncnc32)[C@H](O)[C@@H]1O	Inh (PKA)	3.83%
Cc1csc(-c2nnc(Nc3ccc(Oc4ncccc4-c4ccnc(N)n4)cc3)c3ccccc23)c1	Inh (PKA)	63.02%
C=C1/C(=C\C=C2/CCC[C@]3(C)[C@@H]([C@H](C)CCCC(C)C)CC[C@@H]23)C[C@@H](O)C[C@@H]1O	Inh (PKA)	10.76%
Cn1c2ccccc2c2c3c(c4c5ccccc5n(CCC#N)c4c21)C(=O)NC3=O	Inh (PKA)	13.04%
CC(C)CC(N)=O [UM0142364:01, Isovaleramide]	Inh (PKA)	-0.438%
O=C1c2c(O)cc(O)cc2O[C@H](c2ccc(O)c(O)c2)[C@H]1O	Inh (PKA)	0.9672%
CN1CCN(C2CCN(C(=O)Nc3cc(Oc4ccc(NC(=O)C5(C(=O)Nc6ccc(F)cc6)CC5)c(F)c4)ccn3)CC2)CC1 [UM0142258:01, Golvatinib (E7050)]	Inh (PKA)	5.292%
CCNC(=O)Nc1ccc(-c2nc3c(c(N4CCOC[C@@H]4C)n2)CCN(C2COC2)C3)cc1	Inh (PKA)	3.779%
COC(=O)c1ccc2c(c1)NC(=O)/C2=C(\Nc1ccc(N(C)C(=O)CN2CCN(C)CC2)cc1)c1ccccc1	Inh (PKA)	17.71%
